These data points were gathered from patent US20130210851A1.

# experimental.protocol: Solubility of the saturated solution in aqueous media
# Assay type: physicochemical
# details: Sorensen buffer, aqueous buffer, thermodynamic from solid; Sorensen pH 10.0; intrinsic pH 9.6; 48 h shaking at room temperature; read-out: solubility RT - values
measured.endpoint: solubility at 48 h

In [3]: df
Out[3]:
                                   molecule  observed_result
0  CC(C)c1nc2c(c3c1[C@@H](c1ccc(C(F)(F)F)cc1)OC31CCOCC1)[C@@H](O)CC(C)(C)C2.Cl [crystalline hydrochloride salt form]        < 3 µg/mL

* * *

# experimental.protocol: Solubility of the saturated solution in aqueous media
# Assay type: physicochemical
# details: acetate buffer, aqueous buffer, thermodynamic from solid; Acetate pH 3.0; intrinsic pH 3.0; 48 h shaking at room temperature; read-out: solubility RT - values
measured.endpoint: solubility at 48 h (µg/mL)

>>> print(df.to_string())
                                   compound  observed_result
0  CC(C)c1nc2c(c3c1[C@@H](c1ccc(C(F)(F)F)cc1)OC31CCOCC1)[C@@H](O)CC(C)(C)C2.Cl [crystalline hydrochloride salt form]              200
